target: REV-ERBα LBD (Homo sapiens, UniProt P20393, DEL324-422); test: biochemical; conditions: FRET assay; 6xHistag-REV-ERBα LBD with FITC-labeled SMRT corepressor peptide; read-out: REVERBα (Agonism of REV-ERBα, EC50)
Sequence (P20393 with tags, fused parts or gaps DEL324-422): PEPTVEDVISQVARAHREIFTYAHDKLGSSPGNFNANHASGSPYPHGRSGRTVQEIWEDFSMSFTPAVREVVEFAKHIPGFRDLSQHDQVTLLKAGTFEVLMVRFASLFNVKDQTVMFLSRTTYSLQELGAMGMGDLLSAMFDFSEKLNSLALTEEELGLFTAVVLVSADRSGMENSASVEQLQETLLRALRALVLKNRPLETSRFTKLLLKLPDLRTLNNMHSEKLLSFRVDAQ
Sequence (Q9Y618 2335-2356 partner limits assumed): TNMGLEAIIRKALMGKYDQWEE
Catalogue of molecules with associated EC50

[[record]]
molecule = "CC(NS(=O)(=O)C1CC1)c1cn(CC(C)(C)C)c2cc(-c3ncc(F)cc3C#N)c(F)cc12 (stereo not drawn)"
reported_metric = "EC50"
reported_result = "< 100 nM"

[[record]]
molecule = "CC(NS(=O)(=O)C1CC1)c1cn(CC(C)(C)C)c2cc(-c3cccnc3C(F)F)c(F)cc12 (stereo not drawn)"
reported_metric = "EC50"
reported_result = "< 100 nM"

[[record]]
molecule = "Cc1ncnc(C(F)F)c1-c1ccc2c([C@H](NS(=O)(=O)C3CC3)C(F)F)cn(CC(C)(C)C)c2c1"
reported_metric = "EC50"
reported_result = "< 100 nM"

[[record]]
molecule = "Cc1ccnc(C(F)(F)F)c1-c1cc2c(cc1F)c([C@H](NS(=O)(=O)C1CC1)C(F)F)cn2CC(C)(C)C"
reported_metric = "EC50"
reported_result = "< 100 nM"

[[record]]
molecule = "CC(C)(C)Cn1cc([C@H](NS(=O)(=O)C2CC2)C(F)F)c2cc(F)c(-c3ncccc3Cl)cc21"
reported_metric = "EC50"
reported_result = "< 100 nM"

[[record]]
molecule = "CN(C)S(=O)(=O)N[C@@H](c1cn(CC(C)(C)C)c2cc(-c3ccccc3C(F)(F)F)ccc12)C(F)F"
reported_metric = "EC50"
reported_result = "< 100 nM"

[[record]]
molecule = "O=c1ccc(-c2nc3c(cc2F)c([C@H](NS(=O)(=O)C2CC2)C(F)F)cn3C2CCC2)c(C(F)(F)F)[nH]1"
reported_metric = "EC50"
reported_result = "< 100 nM"

[[record]]
molecule = "CC(NS(=O)(=O)C1CC1)c1cn(CC(C)(C)C)c2cc(-c3c(F)cccc3C#N)ccc12 (single isomer, unassigned) [Compound 26]"
reported_metric = "EC50"
reported_result = "100 to 1000 nM"


Prompt: Lab note: need EC50 for `CC(C)(C)Cn1cc([C@H](NS(=O)(=O)C2CC2)C(F)(F)F)c2ccc(-c3cc(F)ccc3C#N)cc21` on REV-ERBα LBD (Homo sapiens, UniProt P20393, DEL324-422), anyone have it?
Completion: 100 to 1000 nM

----------
molecular target: REV-ERBα LBD (Homo sapiens, UniProt P20393, DEL324-422); test: biochemical; conditions: FRET assay; 6xHistag-REV-ERBα LBD with FITC-labeled SMRT corepressor peptide; read-out: REVERBα (Agonism of REV-ERBα, EC50)
pEC50: −log10 of the molar value.
Reported metric: pEC50

[[record]]
compound = "CN(C)S(=O)(=O)N[C@@H](c1cn(CC(C)(C)C)c2cc(-c3cccnc3C(F)(F)F)c(F)cc12)C(F)F"
measured_target = "REV-ERBα LBD (Homo sapiens, UniProt P20393, DEL324-422)"
reported_metric = "pEC50"
reported_result = "> 7.00"

[[record]]
compound = "CC(NS(=O)(=O)C1CC1)c1cn(CC(C)(C)C)c2cc(-c3ncccc3C#N)c(F)cc12 (single isomer, unassigned) [Compound 19]"
measured_target = "REV-ERBα LBD (Homo sapiens, UniProt P20393, DEL324-422)"
reported_metric = "pEC50"
reported_result = "> 7.00"

[[record]]
compound = "CC(C)(C)Cn1cc([C@H](NS(=O)(=O)C2CC(F)C2)C(F)F)c2ccc(-c3cccnc3C(F)(F)F)cc21 (some centres unmarked)"
measured_target = "REV-ERBα LBD (Homo sapiens, UniProt P20393, DEL324-422)"
reported_metric = "pEC50"
reported_result = "> 7.00"

[[record]]
compound = "CC(C)(C)Cn1cc([C@H](NS(=O)(=O)C2CC2)C(F)F)c2ccc(-c3ncc(F)cc3Cl)cc21"
measured_target = "REV-ERBα LBD (Homo sapiens, UniProt P20393, DEL324-422)"
reported_metric = "pEC50"
reported_result = "> 7.00"

[[record]]
compound = "CC(C)(C)Cn1cc([C@H](NS(=O)(=O)C2CC2)C(F)F)c2ccc(-c3ncc(F)cc3C(F)(F)F)cc21"
measured_target = "REV-ERBα LBD (Homo sapiens, UniProt P20393, DEL324-422)"
reported_metric = "pEC50"
reported_result = "> 7.00"


Prompt: Item under review: `CC(C)(C)Cn1cc([C@H](NS(=O)(=O)C2CC2)C(F)F)c2ccc(-c3ncccc3F)cc21` . Reported pEC50?
Completion: > 7.00

Prompt: Item under review: `Nc1ccc(-c2nc3c(cc2F)c([C@H](NS(=O)(=O)C2CC2)C(F)F)cn3C2CCC2)c(C(F)(F)F)n1` . Reported pEC50?
Completion: > 7.00

Prompt: Item under review: CC(NS(=O)(=O)C1CC1)c1cn(CC(C)(C)C)c2cc(-c3cnccc3F)c(F)cc12 (centres unmarked) . Reported pEC50?
Completion: 6.00 to 7.00

Prompt: Item under review: `CC(C)(C)Cn1cc([C@H](NS(=O)(=O)C2CC2)C(F)F)c2ccc(-c3ccc(=O)[nH]c3C(F)(F)F)cc21` . Reported pEC50?
Completion: > 7.00

Prompt: Item under review: CC(NS(=O)(=O)C1CC1)c1cn(CC(C)(C)C)c2cc(-c3cc(F)cnc3C#N)c(F)cc12 (centres unmarked) . Reported pEC50?
Completion: > 7.00

Prompt: Item under review: `O=S(=O)(N[C@@H](c1cn(C2CCC2)c2cc(-c3cc(F)cnc3C(F)(F)F)c(F)cc12)C(F)F)C1CC1` . Reported pEC50?
Completion: > 7.00

Prompt: Item under review: `O=S(=O)(N[C@@H](c1cn(C2CCC2)c2nc(-c3ccc(F)cc3C(F)(F)F)c(F)cc12)C(F)F)C1CC1` . Reported pEC50?
Completion: > 7.00

Prompt: Item under review: `CC(C)(C)Cn1cc([C@H](NS(=O)(=O)C2CC2)C(F)F)c2ccc(-c3nccnc3C#N)cc21` . Reported pEC50?
Completion: 6.00 to 7.00

Prompt: Item under review: CC(NS(=O)(=O)C1CC1)c1cn(CC(C)(C)C)c2cc(C3CCOCC3)ccc12 (single isomer, unassigned) [Compound 24] . Reported pEC50?
Completion: 6.00 to 7.00

----------
Catalogue of compounds with associated pEC50
biological target: REV-ERBα LBD (Homo sapiens, UniProt P20393, DEL324-422); assay: biochemical; settings: FRET assay; 6xHistag-REV-ERBα LBD with FITC-labeled SMRT corepressor peptide; read-out: REVERBα (Agonism of REV-ERBα, EC50)
pEC50: −log10 of the molar value.

Consider the worked cases shown below.
[[record]]
compound = "CC(C)(C)Cn1cc([C@H](NS(=O)(=O)C2CC2)C(F)F)c2cc(F)c(-c3ccc(=O)[nH]c3C(F)(F)F)cc21 [Compound 169]"
measured_target = "REV-ERBα LBD (Homo sapiens, UniProt P20393, DEL324-422)"
reported_metric = "pEC50"
reported_result = "> 7.00"

[[record]]
compound = "CC(C)(C)Cn1cc([C@H](NS(=O)(=O)C2CC2)C(F)F)c2ccc(C3CCOCC3)cc21 [Compound 174]"
measured_target = "REV-ERBα LBD (Homo sapiens, UniProt P20393, DEL324-422)"
reported_metric = "pEC50"
reported_result = "> 7.00"

[[record]]
compound = "CC(C)(C)Cn1cc([C@H](NS(=O)(=O)C2CC2)C(F)F)c2cc(F)c(-c3c(C#N)cccc3C(F)F)cc21 [Compound 109]"
measured_target = "REV-ERBα LBD (Homo sapiens, UniProt P20393, DEL324-422)"
reported_metric = "pEC50"
reported_result = "> 7.00"


Prompt: Item under review: CC(C)(C)Cn1cc([C@H](NS(=O)(=O)C2CC2)C(F)F)c2cc(F)c(-c3ccc(F)cc3C(F)F)cc21 [Compound 117] . Reported pEC50?
Completion: > 7.00

Prompt: Item under review: CN(C)S(=O)(=O)N[C@@H](c1cn(CC(C)(C)C)c2cc(-c3ccccc3C(F)(F)F)c(F)cc12)C(F)F [Compound 54] . Reported pEC50?
Completion: > 7.00

Prompt: Item under review: CC(NS(=O)(=O)C1CC1)c1cn(CC(C)(C)C)c2cc(C3CCOC3)c(F)cc12 (centres unmarked) [Compound 34] . Reported pEC50?
Completion: > 7.00

Prompt: Item under review: CC(C)(C)Cn1cc([C@H](NS(=O)(=O)C2CC2)C(F)F)c2ccc(-c3c(C(F)(F)F)ccc[n+]3[O-])cc21 [Compound 106] . Reported pEC50?
Completion: 6.00 to 7.00

Prompt: Item under review: CC(C)(C)Cn1cc([C@H](NS(=O)(=O)C2CC2)C(F)F)c2ccc(-c3ccc(F)cc3C(F)(F)F)nc21 [Compound 4] . Reported pEC50?
Completion: > 7.00

Prompt: Item under review: Cc1cc(C(F)(F)F)c(-c2cc3c(cc2F)c([C@H](NS(=O)(=O)C2CC2)C(F)F)cn3CC(C)(C)C)cn1 [Compound 140] . Reported pEC50?
Completion: > 7.00

Prompt: Item under review: CC(NS(=O)(=O)C1CC1)c1cn(CC(C)(C)C)c2cc(-c3ncc(F)cc3Cl)c(F)cc12 (centres unmarked) [Compound 62] . Reported pEC50?
Completion: > 7.00

Prompt: Item under review: [2H]C1([2H])CC(S(=O)(=O)N[C@@H](c2cn(CC(C)(C)C)c3cc(-c4cccnc4C(F)(F)F)c(F)cc23)C(F)F)C1 [Compound 45] . Reported pEC50?
Completion: > 7.00

Prompt: Item under review: CC(NS(=O)(=O)C1CC1)c1cn(CC(C)(C)C)c2cc(-c3ncccc3C#N)c(F)cc12 (single isomer, unassigned) [Compound 20] . Reported pEC50?
Completion: 6.00 to 7.00

Prompt: Item under review: CC(C)(C)Cn1cc([C@H](NS(=O)(=O)C2CC2)C(F)F)c2cc(F)c(-c3cc(F)cnc3C(F)(F)F)nc21 [Compound 148] . Reported pEC50?
Completion: > 7.00

Prompt: Item under review: CC(NS(=O)(=O)C1CC1)c1cn(CC(C)(C)C)c2cc(-c3ccc(C(F)(F)F)nc3)c(F)cc12 (centres unmarked) [Compound 70] . Reported pEC50?
Completion: 6.00 to 7.00
